Reported pIC50 by item:
# System: colon cancer cells C-HCT-116
# EXPERIMENTAL PROTOCOL: Proliferation of human cancer cell panel
# Format: cell-based
# CONDITION DETAILS: read-out: inhibitory activity on proliferation
// pIC50: -log10(molar conc.)

Here is how some molecules turned out for pIC50.
MOLECULE: COC(=O)Nc1cc(C(F)(F)F)c(-c2nc(N3CCOCC3)c3cc(CN4CCN(S(C)(=O)=O)CC4)cn3n2)cn1
pIC50: 5.00
//
MOLECULE: CCNC(=O)Nc1cc(C(F)(F)F)c(-c2nc(N3CCOCC3)c3cc(CN4CCN(S(C)(=O)=O)CC4)cn3n2)cn1
pIC50: 5.01

In the following, a different molecule is considered.
query: What pIC50 appears in the records for this molecule with colon cancer cells C-HCT-116? CS(=O)(=O)N1CCN(Cc2cc3nc(-c4cccc5[nH]ncc45)nc(N4CCOCC4)c3s2)CC1 [GDC0941, reference compound]
result: 5.09

Just for reference, patent US9724352B2 is where these values come from.
